- System: ATP;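 also: ATP exposure 15 min at 22 °C before imaging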
- assay_notes: switch fluorescence ratio, 500 uM ATP over buffer (Cy3 cluster intensity, sum of 5 cycles each) (fold (ratio)); higher = stronger signal-on switching upon ATP binding; sequences stand for … in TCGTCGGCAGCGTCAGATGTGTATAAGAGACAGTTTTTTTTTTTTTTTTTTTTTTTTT…TC
- condition: aptamer strand: ATP DNA aptamer (quencher-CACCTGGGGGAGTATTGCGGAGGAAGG + anchor), 100 nM annealed; ATP concentration: 500 uM
readout: switch fluorescence ratio
Answer field: number only, no words.

1. TGGGGCGGCG	0.976
2. AAAAACGCTT	1.01
3. GAGGGTCATC	0.935
4. AGGGCGGGAT	0.965

Query: Hello, please tell me recorded switch fluorescence ratio for this one: ACAACGGGGG
Result: 1.05

Query: Tell me measured switch fluorescence ratio for TGGGCGGTGC please.
Result: 1.93
